# target_under_test: PI3Kδ (p110δ/p85α) Recombinant Human Protein (Homo sapiens (Human), UniProt O00329)
# Sequence (O00329 whole entry): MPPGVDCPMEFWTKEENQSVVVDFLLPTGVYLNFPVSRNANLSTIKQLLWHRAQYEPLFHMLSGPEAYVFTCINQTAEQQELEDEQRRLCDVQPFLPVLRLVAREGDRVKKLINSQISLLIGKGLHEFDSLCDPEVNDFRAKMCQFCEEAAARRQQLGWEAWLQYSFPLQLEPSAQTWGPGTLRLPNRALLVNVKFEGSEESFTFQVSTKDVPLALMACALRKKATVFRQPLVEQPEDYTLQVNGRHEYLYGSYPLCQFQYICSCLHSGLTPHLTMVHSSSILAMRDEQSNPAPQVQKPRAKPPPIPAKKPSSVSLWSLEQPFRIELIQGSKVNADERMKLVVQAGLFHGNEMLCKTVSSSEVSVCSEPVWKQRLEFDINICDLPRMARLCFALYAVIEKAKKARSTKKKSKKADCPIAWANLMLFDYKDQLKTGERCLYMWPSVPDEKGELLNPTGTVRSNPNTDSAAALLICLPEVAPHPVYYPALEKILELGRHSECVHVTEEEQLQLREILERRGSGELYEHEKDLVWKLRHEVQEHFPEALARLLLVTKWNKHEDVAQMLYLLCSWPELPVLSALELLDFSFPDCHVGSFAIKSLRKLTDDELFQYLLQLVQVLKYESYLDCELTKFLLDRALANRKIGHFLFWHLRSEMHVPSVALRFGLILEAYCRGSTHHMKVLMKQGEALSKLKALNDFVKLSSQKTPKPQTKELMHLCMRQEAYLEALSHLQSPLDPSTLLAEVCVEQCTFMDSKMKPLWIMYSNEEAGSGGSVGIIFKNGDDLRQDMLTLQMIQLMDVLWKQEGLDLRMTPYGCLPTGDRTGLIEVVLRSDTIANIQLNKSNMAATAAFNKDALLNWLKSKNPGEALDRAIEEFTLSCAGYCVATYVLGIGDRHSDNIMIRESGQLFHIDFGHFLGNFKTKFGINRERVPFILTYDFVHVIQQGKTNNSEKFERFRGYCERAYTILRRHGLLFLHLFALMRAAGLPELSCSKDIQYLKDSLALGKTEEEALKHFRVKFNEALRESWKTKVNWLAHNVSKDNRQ
# Sequence (P27986 whole entry partner): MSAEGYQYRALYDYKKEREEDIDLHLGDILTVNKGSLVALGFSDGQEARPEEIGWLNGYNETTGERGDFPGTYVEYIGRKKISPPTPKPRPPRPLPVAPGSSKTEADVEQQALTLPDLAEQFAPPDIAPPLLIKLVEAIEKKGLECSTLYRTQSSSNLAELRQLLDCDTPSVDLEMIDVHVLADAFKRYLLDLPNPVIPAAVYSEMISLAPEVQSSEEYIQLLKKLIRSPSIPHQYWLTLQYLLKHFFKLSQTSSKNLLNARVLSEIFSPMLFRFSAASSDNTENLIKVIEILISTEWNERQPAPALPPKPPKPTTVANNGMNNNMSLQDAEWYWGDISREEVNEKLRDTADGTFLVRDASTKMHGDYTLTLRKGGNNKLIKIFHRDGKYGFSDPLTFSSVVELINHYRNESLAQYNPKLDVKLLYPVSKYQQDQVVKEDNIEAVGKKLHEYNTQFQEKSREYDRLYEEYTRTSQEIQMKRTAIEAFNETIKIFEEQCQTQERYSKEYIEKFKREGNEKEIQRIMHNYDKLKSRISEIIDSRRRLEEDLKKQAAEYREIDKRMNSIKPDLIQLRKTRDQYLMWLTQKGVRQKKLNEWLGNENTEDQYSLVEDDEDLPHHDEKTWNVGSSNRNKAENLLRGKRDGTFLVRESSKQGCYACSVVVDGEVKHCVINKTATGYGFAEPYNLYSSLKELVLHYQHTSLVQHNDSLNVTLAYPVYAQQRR
# experimental_details: PI3Kδ Scintillation Proximity Assay
# condition_set: read-out: PI3K-delta SPA IC50
Counter-ions that a name gives are not always drawn.
parameter_measured: IC50

Please review the entries below; each comes with its answer.
compound | IC50
c1cc(-c2cncc(N3CCOCC3)c2)cc(-c2ncc(C3CCC3)[nH]2)n1 [Example 103, trifluoroacetate salt] | ≤ 50 nM
CNC(=O)c1nc(-c2cc(-c3cnn(Cc4ccc(Cl)cc4)c3)ccn2)[nH]c1C [Example 296] | > 500 nM

Give its IC50 value. Item: Cc1nc(-c2cc(C3CCCN(S(=O)(=O)c4ccccc4)C3)ccn2)[nH]c1C (racemic) [Example 215, Trifluoroacetate Salt]
> 500 nM

What IC50 value was documented for this compound, COc1cncc(-c2ccnc(-c3ncc(-c4ccccn4)[nH]3)c2)c1 [Example 87, trifluoroacetate salt] ?
≤ 50 nM

Name the reported IC50 value associated with the compound Cc1nc(-c2cc(C3=CCN(S(C)(=O)=O)C3)ccn2)[nH]c1C [Example 227, trifluoroacetate salt]
> 500 nM

What value of IC50 has been recorded for this entry: CS(=O)(=O)c1cncc(-c2ccnc(-c3ncc(C4CC4)[nH]3)c2)c1 [Example 112, trifluoroacetate salt]
≤ 50 nM

Using the record for CCOC(=O)CCn1cc(-c2ccnc(-c3ncc(-c4ccccc4)[nH]3)c2)cn1 [Example 55, trifluoroacetate salt] , report its IC50.
≤ 500 nM
